System: NCI-H460
assayDetails: Cytotoxicity against human NCI-H460 cells at 4 ug/ml after 48 hrs by SRB assay
Format: functional
runConditions: NCI-H460, 48 h
attributeMeasured: growth, % of control at 4 µg/mL

compound=NCCCC[C@H](N)C(=O)NCCNc1ccc(NCCNC(=O)[C@@H](N)CCCCN)c2c1C(=O)c1ccccc1C2=O experimentalvalue=79%
compound=N[C@@H](Cc1ccc(O)cc1)C(=O)NCCNc1ccc(NCCNC(=O)[C@@H](N)Cc2ccc(O)cc2)c2c1C(=O)c1ccccc1C2=O experimentalvalue=56%
compound=CC(C)(C)OC(=O)NCCCC[C@H](NC(=O)OC(C)(C)C)C(=O)NCCNc1ccc(NCCNC(=O)[C@H](CCCCNC(=O)OC(C)(C)C)NC(=O)OC(C)(C)C)c2c1C(=O)c1c(O)ccc(O)c1C2=O experimentalvalue=99%
compound=CC(C)(C)OC(=O)NCCCC[C@@H](N)C(=O)NCCNc1ccc(NCCNC(=O)[C@H](N)CCCCNC(=O)OC(C)(C)C)c2c1C(=O)c1ccccc1C2=O experimentalvalue=98%
compound=NCCCC[C@@H](N)C(=O)NCCNc1ccc(NCCNC(=O)[C@H](N)CCCCN)c2c1C(=O)c1ccccc1C2=O experimentalvalue=100%
compound=CC(C)(C)OC(=O)NCCCC[C@@H](NC(=O)OCC1c2ccccc2-c2ccccc21)C(=O)NCCNc1ccc(NCCNC(=O)[C@@H](CCCCNC(=O)OC(C)(C)C)NC(=O)OCC2c3ccccc3-c3ccccc32)c2c1C(=O)c1ccccc1C2=O experimentalvalue=88%
compound=CC(C)(C)OC[C@H](N)C(=O)NCCNc1ccc(NCCNC(=O)[C@@H](N)COC(C)(C)C)c2c1C(=O)c1ccccc1C2=O experimentalvalue=48%
